# measurement-notes: CREB reporter modulators under forskolin, primary screen, cell-based, PC12, CRE-LacZ reporter, forskolin-stimulated (AID 1146);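 also: PC12 cells with 6xCRE LacZ reporter stimulated by forskolin 10 µM; beta-galactosidase reporter signal reflecting CREB driven transcription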
# test-settings: luminescence, 4.5 h, higher = more signal, called active from +8 up or from −8 down
z-score values for the compounds below.
Keep it simple and answer with nothing but the number.

Example entries and their recorded answers appear below.
structure=CC(C)(C)OC(=O)CC[C@]1(C(=O)O)N=C(c2ccc(OCCCO)cc2)O[C@H]1c1ccccc1CN=[N+]=[N-] test_value=-1.7
structure=C[C@]1(C(=O)O)c2ccccc2C(=O)N(Cc2ccccc2)[C@H]1c1ccc(CO)cc1 test_value=-0.301
structure=C=CC[C@]1(C(=O)N(C)C)N=C(c2ccc(OCCCO)cc2)O[C@H]1c1ccccc1N=[N+]=[N-] test_value=-1.23

Please find the next compound below.
stdin: Which value of z-score has been reported for Cc1ccc(F)cc1S(=O)(=O)N[C@@H]1CCN(Cc2ccc(OC(C)C)cc2)C1 in the records?
stdout: 0.524

---

# measurement-notes: basal HepG2 mitochondrial membrane potential changes, profiling panel, cell-based, JC-1 fluorescence, 24 h, 100 nL compound (AID 1167); also: test concentration not given here
# test-settings: higher = more signal
measured-attribute: z-score
Enter the number alone.

Check out these entries, answers already filled in.
compound=C=CC[C@@]1(C(=O)N2CCCCC2)N=C(c2ccc(OCCCO)cc2)O[C@@H]1c1ccccc1 measured_attribute=z-score test_value=-0.381
compound=COC(=O)[C@@]1(Cc2ccc(OC)cc2)[C@H]2c3cc(C(=O)N(C)C)n(CCc4c[nH]c5ccc(O)cc45)c3C[C@H]2CN1C(=O)c1ccccc1 measured_attribute=z-score test_value=0.941
compound=C=CCOC(=O)[C@H]1[C@@H]2C(=O)O[C@@H](c3ccccc3)[C@@H](c3ccccc3)N2[C@@H](c2ccc(OCCOC(=O)[C@H]3C[C@H]4C(=O)N[C@@H](CCCC[N+](C)(C)C)C(=O)N4[C@H]3c3cccc(OCCO)c3)cc2)[C@]12C(=O)Nc1ccc(I)cc12 measured_attribute=z-score test_value=-2

stdin: Query: z-score; subject: CCOC(=O)[C@H]1C/C=C/C[C@H](C(=O)OCC)C(=O)O[C@H]2[C@@H](OC)O[C@H](CO)[C@@H](OC(=O)Nc3ccc(OC)cc3)[C@@H]2OC1=O
stdout: 1.89

stdin: For C=CC[C@@H](OC(=O)Nc1ccc(OC)cc1)c1ccc(OCCO)cc1 , what is its reported z-score?
stdout: -1.92

stdin: # z-score lookup, item COc1ccc(C(O)C2C=CC3C(=O)N(Cc4ccccc4)C(=O)C3N2n2cnnc2)c2ccccc12 (stereo unspecified)
stdout: -0.722

---

# Test system: PRMT1 (protein arginine N-methyltransferase 1)
# measurement-notes: PRMT1 binders on small-molecule microarrays, primary screen, biochemical, small-molecule microarray, 635 nm fluorescence (AID 1088);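 also: binding of Prmt1 protein to compounds spotted on small-molecule microarray slides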
# test-settings: small-molecule microarray binding, higher = more signal
measured-attribute: composite z-score
Please reply with the number alone, leaving off any unit.

Consider the following illustrative entries.
molecule="CN1C2C=C(CCCO)C(C3C(=O)N(C(N)=O)C(=O)C32)C1c1cccs1 (centres undefined)" test_value=0.613
molecule=C=CC[C@H](OC(=O)Nc1ccc(OC)cc1)c1ccc(O)c2ccccc12 test_value=1.33
molecule=COCC(=C=CC[C@H](O)c1ccc(OCCO)cc1)C[C@H](O)COCc1ccccc1 test_value=1.51
molecule=C=C[C@H](COC(C)=O)NS(=O)(=O)c1ccc(Br)cc1 test_value=-0.0232
molecule=C=C[C@@H](COC(C)=O)NS(=O)(=O)c1ccc(Br)cc1 test_value=0.317

stdin: Quick one: composite z-score for COCC(=C=CC[C@H](O)c1cccc(OCCO)c1)C[C@H](O)c1ccccn1 ?
stdout: 1.02

stdin: Fill in the blank: the reported composite z-score of Cc1ccc(S[C@]2(C(=O)NCC(C)C)CC(=O)N(Cc3ccccc3Cl)[C@@H]2c2ccc(CO)cc2I)cc1 is ____.
stdout: 0.939

stdin: Which composite z-score value belongs to CC(=O)n1cc(C(O)C2C=CC3C(=O)N(c4ccccc4)C(=O)C3N2Nc2ccccc2)c2ccccc21 (centres undefined) ?
stdout: 0.174

stdin: Request the reported composite z-score associated with O=C(CS)NCCCCCCNC(=O)[C@@H]1C[C@@H]2C(=O)N3CCC[C@H]3C(=O)N2[C@@H]1c1cccc(OCCO)c1
stdout: 1.35

---

# measurement-notes: small-molecule binders of probe aInhba, primary screen, biochemical, small-molecule microarray, 635/667 nm fluorescence (AID 1148);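 also: score merges 667nm spot fluorescence with signal-to-noise for antibody binding to printed compounds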
# test-settings: higher = more signal
The label depends only on composite z-score: label 1 if it is at least -0.1, label 0 if it is smaller.

Examples from the recorded data:
molecule=COc1ccc([Si](C)(C)[C@H]2[C@H](CCn3cc([C@H](O)c4ccccc4)nn3)O[C@@]3(C(=O)N(Cc4cccc(N5C(=O)c6cccc7cccc5c67)c4)c4ccccc43)[C@@H]2C)cc1 class_name="label 0"
molecule=Cc1ccc(S[C@]2(C(=O)NC(C)C)CC(=O)N(C3Cc4ccccc4C3)[C@@H]2c2ccc(CO)cc2I)cc1 class_name="label 0"
molecule="CC(C)c1ccc(NN2C(C(O)c3ccco3)C=CC3C(=O)N(c4ccccc4)C(=O)C32)cc1 (stereo unspecified)" class_name="label 1"
molecule=COC(=O)[C@@]1(Cc2ccc(OC)cc2)[C@H]2c3cc(C(=O)N(C)C)n(CCc4c[nH]c5ccc(O)cc45)c3C[C@H]2CN1C(=O)c1ccccc1 class_name="label 1"
molecule="CC=CC(O)C1C=CC2C(=O)N(c3ccccc3)C(=O)C2N1Nc1ccccc1 (stereo unspecified)" class_name="label 1"
molecule="CCCCN1CC=CC23O[C@@H]4C=CCOC(=O)[C@@H]4[C@H]2C(=O)N(CCCO)[C@@H]3C1=O (stereo partly specified)" class_name="label 0"

stdin: State whether the measured composite z-score reaches -0.1, counting equality as reaching it, for NC(N)=NCc1cn(CCc2c[nH]c3ccccc23)nn1
stdout: label 1

stdin: Does composite z-score meet or surpass -0.1 for CCOC(=CC(=O)OC)CC(O)c1cccc(Cl)c1 (stereo unspecified) ?
stdout: label 0

stdin: Quick check, composite z-score >= -0.1? O=C1NC(=O)C2C1C=CC(C(O)c1ccc3c(c1)OCO3)N2Nc1ccccn1 (stereo unspecified)
stdout: label 0

stdin: Exam item: decide whether the reported composite z-score for CC(C)OC(=O)CC(=O)CC(O)c1cccc(C#N)c1 (stereo unspecified) is at least -0.1.
stdout: label 1

stdin: Given the entry COC(=O)[C@]1(CCS(=O)(=O)c2ccccc2)N=C(c2ccc(OCCCO)cc2)O[C@@H]1c1ccccc1CN=[N+]=[N-] , answer whether its composite z-score meets or surpasses -0.1.
stdout: label 1

stdin: Determine whether this molecule has composite z-score no lower than -0.1: COCCOC(=O)N1C(=O)[C@@]2(c3cc(C#CC4(O)CCCCCC4)ccc31)[C@H](C(N)=O)[C@H]1C(=O)O[C@H](c3ccccc3)[C@H](c3ccccc3)N1[C@@H]2c1ccc(O)cc1
stdout: label 1

stdin: Can O=C(O)[C@H](Cc1ccccc1)n1cc(-c2ccccn2)nn1 be said to have composite z-score at or above -0.1?
stdout: label 1

stdin: Textbook exercise: given the entry COc1ccc([Si](C)(C)[C@H]2[C@H](CCO)O[C@@]3(C(=O)N(Cc4cccc(N5CCCCC5=O)c4)c4ccccc43)[C@@H]2C)cc1 , state whether its composite z-score is greater than or equal to -0.1.
stdout: label 0

---

# measurement-notes: P. aeruginosa biofilm formation inhibitors, primary screen, strain PAO1, LB-PBS medium, absorbance 600 nm (AID 1176); also: test concentration not given here
# test-settings: P. aeruginosa PAO1 growth/biofilm, A600, 12 h; higher = more signal
Class T: z-score at least 0.3. Class F: z-score below 0.3.

Check out these entries, answers already filled in.
compound=CCCc1cccc(=O)o1 class_name=T
compound=O=C(N1CCCCC1)[C@@]1(Cc2ccccc2)COC(c2ccc(OCCCO)cc2)=N1 class_name=F

stdin: Exam item: decide whether the reported z-score for C=CC[C@H](OC(=O)Nc1ccc(OC)cc1)c1ccc(O)c2ccccc12 is at least 0.3.
stdout: T

stdin: Reported z-score reaches at least 0.3 for O=C(CCCCCCC(=O)Nc1ccccc1)N/N=C/c1ccccc1 ?
stdout: T

stdin: Confirm if z-score reported for the compound CC(C)(C)N1CC=CC23O[C@@H]4C=CCOC(=O)[C@@H]4[C@H]2C(=O)N(CCCO)[C@@H]3C1=O (stereo not given in full) is 0.3 or above.
stdout: F

---

# measurement-notes: small-molecule binders of probe aNOTCH3, primary screen, biochemical, small-molecule microarray, 635/667 nm fluorescence (AID 1120);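 also: probe is a biotin-tagged antibody raised against NOTCH3 rather than NOTCH3 protein; score merges spot fluorescence near 667 nm with spot signal to noise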
# test-settings: higher = more signal
measured-attribute: composite z-score

stdin: Requested read-out: composite z-score. Entry: COc1ccc([Si](C)(C)[C@H]2[C@H](CC(=O)N3Cc4ccccc4C[C@H]3CO)O[C@@]3(C(=O)N(Cc4cccc(N5CCCCC5=O)c4)c4ccccc43)[C@@H]2C)cc1
stdout: -0.0044

stdin: Consider the compound shown here: C=CCOC(=O)[C@H]1[C@@H]2C(=O)O[C@@H](c3ccccc3)[C@@H](c3ccccc3)N2[C@@H](c2ccc(OCCOC(=O)[C@H]3C[C@H]4C(=O)N[C@@H](CCCC[N+](C)(C)C)C(=O)N4[C@H]3c3cccc(OCCO)c3)cc2)[C@]12C(=O)Nc1ccc(I)cc12 What is its recorded composite z-score?
stdout: -0.208

stdin: Can you share its composite z-score? I mean this compound: COc1cc2c(cc1O)C(C)N(Cc1cc3c(cc1Br)OCO3)CC2 (stereo not drawn)
stdout: -0.119

stdin: What measured composite z-score goes with COCCOC(=O)N1C(=O)[C@@]2(c3cc(C#CC4(O)CCCCCC4)ccc31)[C@H](C(N)=O)[C@H]1C(=O)O[C@H](c3ccccc3)[C@H](c3ccccc3)N1[C@@H]2c1ccc(O)cc1 ?
stdout: 0.676

stdin: State the recorded composite z-score for this entry: COCCOC(=O)N1C(=O)[C@@]2(c3cc(C#CC4(O)CCCCCC4)ccc31)[C@H](C(=O)N1CCCCCCC1)[C@H]1C(=O)O[C@H](c3ccccc3)[C@H](c3ccccc3)N1[C@@H]2c1ccc(OCCO)cc1
stdout: 1.73

Each recorded value in this set is attributed to PubChem BioAssay.
